Would you mind telling me the reported TOP MFI of each entry?
biological target: T1, human SIRPγ stably expressed on 293F cells (human, UniProt Q9P1W8 29-387); assay: FACS, 293F-hSIRPγ cells
T1 construct: whole, on cells
T1 sequence (Q9P1W8 29-387): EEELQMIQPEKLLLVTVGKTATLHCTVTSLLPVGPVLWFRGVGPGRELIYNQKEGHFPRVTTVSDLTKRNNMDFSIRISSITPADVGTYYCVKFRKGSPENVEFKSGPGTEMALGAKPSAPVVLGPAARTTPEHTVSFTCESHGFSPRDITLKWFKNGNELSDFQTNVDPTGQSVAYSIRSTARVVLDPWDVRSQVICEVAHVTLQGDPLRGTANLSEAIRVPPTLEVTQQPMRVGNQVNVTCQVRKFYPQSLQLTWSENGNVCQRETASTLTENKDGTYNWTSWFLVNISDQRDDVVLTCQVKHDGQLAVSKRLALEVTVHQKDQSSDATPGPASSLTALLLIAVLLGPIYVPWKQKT

Which measured TOP MFI value corresponds to 025c (antibody, V domains shown, also called chimeric antibody 025c; parental antibody of 025c) VH: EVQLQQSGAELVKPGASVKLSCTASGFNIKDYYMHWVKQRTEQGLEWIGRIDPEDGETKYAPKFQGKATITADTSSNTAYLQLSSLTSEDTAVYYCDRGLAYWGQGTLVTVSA VL: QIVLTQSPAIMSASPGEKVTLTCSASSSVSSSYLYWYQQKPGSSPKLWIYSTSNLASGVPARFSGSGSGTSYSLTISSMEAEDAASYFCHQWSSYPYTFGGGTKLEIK ?
22800 MFI

TOP MFI for hu025.023 (antibody, V domains shown, Humanized 025; also called hu025.23) VH: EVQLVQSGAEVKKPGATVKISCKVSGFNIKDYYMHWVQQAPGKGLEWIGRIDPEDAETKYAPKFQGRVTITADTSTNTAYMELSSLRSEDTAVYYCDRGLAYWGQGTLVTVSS VL: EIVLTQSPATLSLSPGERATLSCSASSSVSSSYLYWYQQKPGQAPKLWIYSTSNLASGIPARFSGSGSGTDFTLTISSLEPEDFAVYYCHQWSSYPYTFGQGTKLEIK ?
22400 MFI

Which TOP MFI reading was recorded for the binder hu025.060 (antibody, V domains shown, Humanized 025; also called hu025.60) VH: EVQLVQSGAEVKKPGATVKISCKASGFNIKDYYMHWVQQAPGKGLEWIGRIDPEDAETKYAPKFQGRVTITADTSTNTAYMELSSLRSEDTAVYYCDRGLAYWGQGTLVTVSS VL: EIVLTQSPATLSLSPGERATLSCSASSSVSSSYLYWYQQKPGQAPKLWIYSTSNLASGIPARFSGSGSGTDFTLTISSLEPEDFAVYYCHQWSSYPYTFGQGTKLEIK ?
22200 MFI
